# target_system: IDH1 wt/IDH1 R132H heterodimer (Homo sapiens (Human), UniProt O75874, R132H)
# Sequence (O75874 whole entry R132H): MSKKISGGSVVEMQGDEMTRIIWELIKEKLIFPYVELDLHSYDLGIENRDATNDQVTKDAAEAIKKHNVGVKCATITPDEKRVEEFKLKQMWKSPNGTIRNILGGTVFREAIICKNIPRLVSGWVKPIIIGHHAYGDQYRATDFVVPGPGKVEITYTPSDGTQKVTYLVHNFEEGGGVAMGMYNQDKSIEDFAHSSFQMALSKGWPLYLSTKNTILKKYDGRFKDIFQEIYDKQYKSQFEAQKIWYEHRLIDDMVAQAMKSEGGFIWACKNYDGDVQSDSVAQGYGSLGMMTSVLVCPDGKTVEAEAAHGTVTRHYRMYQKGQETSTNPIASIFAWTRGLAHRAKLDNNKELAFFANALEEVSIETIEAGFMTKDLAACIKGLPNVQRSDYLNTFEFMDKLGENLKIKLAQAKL
# Sequence (O75874 whole entry, stated change not applied): as the sequence (O75874 whole entry R132H) above, with H132R counted along it
# measurement_notes: In vitro assay for IDH1m R132H inhibitors, IDH1 wt/IDH1 R132H heterodimer, NADPH depletion (diaphorase/resazurin)
# Assay type: biochemical
# run_parameters: IDH1 wt/R132H heterodimer, NADPH/NADP, not saturated; read-out: IDH1 wt/R132H NADPH/NADP IC50 not saturated
reported_property: IC50

Example molecules with recorded IC50:
INSERT INTO measurements (molecule, observed_measurement) VALUES
  ('C[C@@H](Nc1nc(N[C@H](C)C2CC2)nc(-n2cc(I)cn2)n1)C1CC1', '100 to 1000 nM'),
  ('CC(CC#N)Nc1nc(N[C@H](C)C2CC2)nc(-c2cccc(C(F)(F)F)n2)n1 (some centres unmarked)', '< 50 nM');

// returns IC50 for CCC(Nc1nc(NC(CC)C2CC2)nc(-c2cccc(Cl)n2)n1)C1CC1 (centres unmarked) with IDH1 wt/IDH1 R132H heterodimer (Homo sapiens (Human), UniProt O75874, R132H); value = < 50 nM

Value sought: IC50, system IDH1 wt/IDH1 R132H heterodimer (Homo sapiens (Human), UniProt O75874, R132H), item CC(C)(C)OC(=O)N1CCC(Nc2nc(NC3CCC(F)(F)CC3)nc(-c3cccc(C(F)(F)F)n3)n2)CC1 . Result: 100 to 1000 nM

Entry FC1(F)CC(CNc2nc(NCC3CC(F)(F)C3)nc(-c3cccc(C(F)(F)F)n3)n2)C1 , IDH1 wt/IDH1 R132H heterodimer (Homo sapiens (Human), UniProt O75874, R132H) data, IC50 value: < 50 nM

Value (IC50, IDH1 wt/IDH1 R132H heterodimer (Homo sapiens (Human), UniProt O75874, R132H)) for record O=C1C[C@H](Nc2nc(NC3CCC(F)(F)C3)nc(-c3cccc(C(F)(F)F)n3)n2)CN1c1ccccn1 (some centres unmarked) = < 50 nM

Item FC1(F)CC(Nc2nc(NC3CC(F)(F)C3)nc(-c3nc(C(F)(F)F)cs3)n2)C1 was tested on IDH1 wt/IDH1 R132H heterodimer (Homo sapiens (Human), UniProt O75874, R132H); the reported IC50 is < 50 nM

The reported IDH1 wt/IDH1 R132H heterodimer (Homo sapiens (Human), UniProt O75874, R132H) IC50 of C[C@@H](Nc1nc(N[C@H](C)C2CC2)nc(-c2nccc(C(F)(F)F)n2)n1)C1CC1 is 100 to 1000 nM

* * *

# target_system: IDH1 wt/IDH1 R132H heterodimer (Homo sapiens (Human), UniProt O75874, R132H)
# measurement_notes: In vitro assay for IDH1m R132H inhibitors, IDH1 wt/IDH1 R132H heterodimer, NADPH depletion (diaphorase/resazurin)
# Format: biochemical
# run_parameters: IDH1 wt/IDH1 R132H heterodimer, 300 μM NADP (saturated); read-out: IDH1 wt/R132H NADPH/NADP IC50 saturated
pIC50: −log10 of the molar value.
reported_property: pIC50

INSERT INTO results (molecule, reported_property, observed_measurement) VALUES
  ('C[C@@H](Nc1nc(Nc2ccnc(C3(C#N)CC3)c2)nc(-c2cncc(C(F)(F)F)n2)n1)C(F)(F)F [Compound 377]', 'pIC50', '> 7.30'),
  ('FC1(F)CC(Nc2nc(Nc3ccnc(C(F)(F)F)c3)nc(-c3nc(C(F)(F)F)cs3)n2)C1 [Compound 388]', 'pIC50', '> 7.30'),
  ('C[C@@H](Nc1nc(N[C@H](C)C(F)(F)F)nc(-c2ccnc(C(F)(F)F)n2)n1)C(F)(F)F [Compound 344]', 'pIC50', '7.00 to 7.30'),
  ('N#CC1(c2cc(Nc3nc(N[C@@H]4CCC(F)(F)C4)nc(-c4ccnc(C(F)(F)F)n4)n3)ccn2)CC1 [Compound 342]', 'pIC50', '6.00 to 7.00');

Measured pIC50 (IDH1 wt/IDH1 R132H heterodimer (Homo sapiens (Human), UniProt O75874, R132H)), entry Fc1cc(F)cc(Nc2nc(NC3CC(F)(F)C3)nc(-c3nc(C(F)(F)F)cs3)n2)c1 [Compound 413] : > 7.30

pIC50 on IDH1 wt/IDH1 R132H heterodimer (Homo sapiens (Human), UniProt O75874, R132H) for N#CC1(c2cc(Nc3nc(NC4CC5(C4)CC(F)(F)C5)nc(-c4cncc(C(F)(F)F)n4)n3)ccn2)CC1 [Compound 385] is 7.00 to 7.30

Summary line: FC1(F)CC[C@H](Nc2nc(Nc3ccnc(C(F)(F)F)c3)nc(-n3ccc(C(F)(F)F)n3)n2)C1 [Compound 393] , IDH1 wt/IDH1 R132H heterodimer (Homo sapiens (Human), UniProt O75874, R132H), reported pIC50 = > 7.30

* * *

# Test system: HT1080 cells
# measurement_notes: Cellular assay for IDH1m R132C inhibitors, 2-HG by LC-MS in HT1080 cells
# Assay type: cell-based
# run_parameters: Homo sapiens, HT-1080
reported_property: IC50

Worked examples, 5 compounds total:
INSERT INTO assay_data (compound, target_system, observed_measurement) VALUES
  ('CCC(Nc1nc(NC(CC)C(F)(F)F)nc(-c2cccc(Cl)n2)n1)C(F)(F)F (centres unmarked) [Compound 103]', 'HT1080 cells', '< 50 nM'),
  ('FC(F)c1csc(-c2nc(NC3CCC(F)(F)C3)nc(NC3CCC(F)(F)C3)n2)n1 (centres unmarked) [Compound 402]', 'HT1080 cells', '< 50 nM'),
  ('C[C@H](Nc1nc(N[C@@H](C)C2CC2)nc(-c2cccc(C(F)(F)F)n2)n1)C1CC1 [Compound 33]', 'HT1080 cells', '< 50 nM'),
  ('Fc1cc(F)cc(Nc2nc(NC3CC(F)(F)C3)nc(-n3ccc(C(F)(F)F)n3)n2)c1 [Compound 106]', 'HT1080 cells', '100 to 1000 nM'),
  ('CC(Nc1nc(NC(C)C(F)(F)F)nc(-c2cncc(Cl)n2)n1)C(F)(F)F (centres unmarked) [Compound 156]', 'HT1080 cells', '< 50 nM');

Field IC50 (entry C[C@@H](Nc1nc(N[C@H](C)C2CC2)nc(-n2ccc(C(F)(F)F)n2)n1)C1CC1 [Compound 121] ) reads < 50 nM

What the record says about N#Cc1cc(F)cc(Nc2nc(NC3CCC(F)(F)C3)nc(-c3nc(C(F)(F)F)cs3)n2)c1 (centres unmarked) [Compound 132] : IC50 is 100 to 1000 nM

IC50 recorded for this compound, FC1(F)CCC(Nc2nc(NC3CCC(F)(F)C3)nc(-c3cccc(C4CC4)n3)n2)C1 (centres unmarked) [Compound 258] , is > 1000 nM

* * *

# target_system: IDH2 R140Q (Homo sapiens (Human), UniProt P48735, R140Q)
# Sequence (P48735 40-452 R140Q): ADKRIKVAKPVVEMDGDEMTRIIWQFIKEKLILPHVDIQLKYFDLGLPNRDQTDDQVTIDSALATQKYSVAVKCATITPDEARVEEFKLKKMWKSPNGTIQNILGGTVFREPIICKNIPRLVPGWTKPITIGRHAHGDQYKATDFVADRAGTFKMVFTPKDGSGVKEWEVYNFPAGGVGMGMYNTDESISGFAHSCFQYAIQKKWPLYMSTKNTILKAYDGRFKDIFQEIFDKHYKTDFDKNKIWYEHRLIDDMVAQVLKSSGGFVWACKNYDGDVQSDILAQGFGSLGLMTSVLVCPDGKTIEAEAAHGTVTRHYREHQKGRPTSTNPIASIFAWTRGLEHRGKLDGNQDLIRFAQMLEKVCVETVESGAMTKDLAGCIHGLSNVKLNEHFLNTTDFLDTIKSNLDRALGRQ
# measurement_notes: In vitro assay for IDH2m R140Q inhibitors, cofactor depletion assay
# Assay type: biochemical
# run_parameters: IDH2 R140Q enzyme
pIC50: −log10 of the molar value.
Attribute: pIC50

Entry N#CC1(c2cc(Nc3nc(NC4CCC(F)(F)CC4)nc(-c4cncc(C(F)(F)F)n4)n3)ccn2)CC1 , tested on IDH2 R140Q (Homo sapiens (Human), UniProt P48735, R140Q), has a reported pIC50 of > 7.30

Recorded pIC50 for C[C@@H](Nc1nc(N[C@H](C)C2CC2)nc(-c2cccc(C(F)(F)F)n2)n1)C1CC1 on IDH2 R140Q (Homo sapiens (Human), UniProt P48735, R140Q) was > 7.30

# pIC50 measured on IDH2 R140Q (Homo sapiens (Human), UniProt P48735, R140Q) for item FC1(F)CCC(Nc2nc(NC3CCC(F)(F)C3)nc(-c3ccnc(C(F)(F)F)n3)n2)C1 (stereo not shown) = 7.00 to 7.30

Item C[C@@H](Nc1nc(NCC(C)(C)O)nc(-c2cccc(C(F)(F)F)n2)n1)C1CC1 (stereo in doubt) was tested on IDH2 R140Q (Homo sapiens (Human), UniProt P48735, R140Q); the reported pIC50 is 7.00 to 7.30

* * *

# Test system: U87MG pLVX-IDH2 R140Q-neo cells
# measurement_notes: U87MG pLVX-IDH2 R140Q-neo cell based assay, 2-HG by LC-MS
# run_parameters: Homo sapiens, U-87 MG
IC50 reference

Past entries and their recorded results:
INSERT INTO assay_data (molecule, reported_property, observed_measurement) VALUES
  ('FC(F)c1cccc(-c2nc(NC3CC(F)(F)C3)nc(NC3CC(F)(F)C3)n2)n1', 'IC50', '< 0.05 µM'),
  ('CC(F)(F)c1cncc(-c2nc(NC3CC(F)(F)C3)nc(NC3CC(F)(F)C3)n2)n1', 'IC50', '< 0.05 µM'),
  ('Fc1cc(F)cc(Nc2nc(NC3CC(F)(F)C3)nc(-n3ccc(C(F)(F)F)n3)n2)c1', 'IC50', '< 0.05 µM'),
  ('N#CC1(c2cc(Nc3nc(N[C@H]4CCC(F)(F)C4)nc(-c4cccc(C(F)(F)F)n4)n3)ccn2)CC1', 'IC50', '< 0.05 µM'),
  ('Fc1ccc2c(c1)CC(Nc1nc(NC3CCC(F)(F)C3)nc(-c3cccc(C(F)(F)F)n3)n1)C2 (stereo not shown)', 'IC50', '< 0.05 µM');

Record summary for C[C@@H](Nc1nc(Nc2ccnc(-c3ccccc3)c2)nc(-c2cccc(C(F)(F)F)n2)n1)C(F)(F)F : reported IC50 = < 0.05 µM

Recorded result, FC1(F)CCC(Nc2nc(NC3CCC(F)(F)C3)nc(-c3cccc(C(F)(F)F)n3)n2)CC1 (stereo not shown) , IC50: < 0.05 µM
